Tested on: Pseudomonas aeruginosa MB 5890 (OprD+, efflux−)
assay notes: microbe, parasite or virus in culture
Assay type: cell-based
recorded conditions: MB 5890, OprD+, efflux−
Give measured MIC for each item. Keep answers brief.
Numbers only, in µg/mL.

Some compounds with recorded MIC:
{"columns": ["molecular string", "experimental system", "display unit", "MIC"],
 "data": [
  ["CCN1CCN(C(=O)N[C@@H](C(=O)N[C@@H]2C(=O)N3[C@@H]2SC(C)(C)[C@@H]3C(=O)O)c2ccccc2)C(=O)C1=O", "Pseudomonas aeruginosa MB 5890 (OprD+, efflux−)", "µg/mL", 1],
  ["C[C@@H](O)[C@H]1C(=O)N2C(C(=O)O)=C(SCCN=CN)C[C@H]12", "Pseudomonas aeruginosa MB 5890 (OprD+, efflux−)", "µg/mL", 2],
  ["CC(C)(O/N=C(\\C(=O)N[C@@H]1C(=O)N2C(C(=O)[O-])=C(C[n+]3ccccc3)CS[C@H]12)c1csc(N)n1)C(=O)O", "Pseudomonas aeruginosa MB 5890 (OprD+, efflux−)", "µg/mL", 0.5]
]}

Please look at the following compound next.
Query :: Give recorded MIC. C[C@@H](O)[C@H]1C(=O)N2C(C(=O)O)=C(S[C@@H]3CN[C@H](C(=O)N(C)C)C3)[C@H](C)[C@H]12
Result :: 0.5

----------
Give measured IC50 for each item. Keep answers brief.
experimental system: IMP-1 (Serratia marcescens, UniProt P52699)
Sequence (P52699 whole entry, looked up, species assumed): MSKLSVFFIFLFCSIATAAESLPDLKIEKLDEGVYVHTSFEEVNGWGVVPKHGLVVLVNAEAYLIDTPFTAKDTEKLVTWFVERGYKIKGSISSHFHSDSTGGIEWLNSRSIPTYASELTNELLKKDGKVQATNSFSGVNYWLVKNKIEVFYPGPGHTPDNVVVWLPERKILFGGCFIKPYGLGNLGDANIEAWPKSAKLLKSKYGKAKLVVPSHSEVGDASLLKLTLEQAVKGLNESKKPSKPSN
assay notes: biochemical
Assay type: biochemical
recorded conditions: fluorescence assay, CCF2-FA substrate, 2 pM enzyme, 2 hours at 25° C.; read-out: IMP-1 IC50
Answers are plain numbers, in nM.

// each molecule listed below needs its IC50
1. NCC(CN)NS(=O)(=O)c1ccc(-c2cccn3ccnc23)c(-c2nn[nH]n2)c1S(N)(=O)=O
2. NS(=O)(=O)c1c(S(=O)(=O)N[C@@H]2CCNC2)ccc(-c2cccc3nonc23)c1-c1nn[nH]n1
3. Nc1ccc(-c2ccc(S(=O)(=O)N3CCNCC3)c(S(N)(=O)=O)c2-c2nn[nH]n2)cn1
4. CN(C)CC(F)(F)CNS(=O)(=O)c1ccc(-c2cccc3sc(N)nc23)c(-c2nnn[nH]2)c1S(N)(=O)=O
5. C[C@H](N)CNS(=O)(=O)c1ccc(-c2ccc(N)nc2)c(-c2nn[nH]n2)c1S(N)(=O)=O
6. NCC(CN)NS(=O)(=O)c1ccc(-c2cccc(-c3c[nH]c(N)n3)c2)c(-c2nn[nH]n2)c1S(N)(=O)=O

Result ::
0.141
0.8
3.58
0.442
0.664
1.78

Query :: Give recorded IC50. CN1CC[C@@H](NS(=O)(=O)c2ccc(-c3cccc4[nH]c(N)nc34)c(-c3nn[nH]n3)c2S(N)(=O)=O)C1
Result :: 0.609

----------
System: Pseudomonas aeruginosa MB9798 vs MB9799
recorded conditions: fold difference between efflux+ (MB9798) and efflux− (MB9799) strains; imipenem at 2 μg/mL
readout kind: Efflux ratio
Answers are plain numbers.

{"columns": ["compound", "Efflux ratio"],
 "data": [
  ["NCCCNS(=O)(=O)c1ccc(-c2cc(F)cc3[nH]c(N)nc23)c(-c2nn[nH]n2)c1S(N)(=O)=O [Example 402]", 1.00],
  ["NCC(CN)NS(=O)(=O)c1ccc(-c2cccc(-c3c[nH]c(N)n3)c2)c(-c2nn[nH]n2)c1S(N)(=O)=O [Example 435]", 2.00],
  ["Cc1cc(-c2ccc(S(=O)(=O)NC[C@@H](O)CN)c(S(N)(=O)=O)c2-c2nn[nH]n2)cnc1N [Example 468]", 2.00],
  ["Nc1ccc(-c2ccc(S(=O)(=O)NC[C@@H]3CCCN3)c(S(N)(=O)=O)c2-c2nn[nH]n2)cn1 [Example 488]", 1.00],
  ["C[C@@H](CCN)NS(=O)(=O)c1ccc(-c2ccc(N)nc2)c(-c2nn[nH]n2)c1S(N)(=O)=O [Example 499]", 1.00]
]}

// each compound listed below needs its Efflux ratio
1. Nc1nc2c(-c3ccc(S(=O)(=O)N[C@@H]4C[C@H]4N)c(S(N)(=O)=O)c3-c3nnn[nH]3)cccc2[nH]1 [Example 448]
2. NCC(CN)NS(=O)(=O)c1ccc(-c2ccc(N)nc2)c(-c2nn[nH]n2)c1S(N)(=O)=O [Example 404]

Result ::
0.50
1.20

----------
experimental system: IMP-1 (Serratia marcescens)
assay notes: biochemical
Format: biochemical
recorded conditions: fluorescence assay, CCF2-FA substrate, 2 pM enzyme, 2 hours at 25° C.; read-out: IMP-1 IC50
readout kind: IC50 (nM)
One number for each entry, in nM.

Some compounds with recorded IC50:
{"columns": ["compound", "reported"],
 "data": [
  ["C[C@H](N)Cc1nc2c(-c3ccc(S(=O)(=O)N[C@@H]4CCNC4)c(S(N)(=O)=O)c3-c3nn[nH]n3)cccc2[nH]1 [Example 441]", 1.23],
  ["Nc1nc2c(-c3ccc(S(=O)(=O)N4CCOCC4)c(S(N)(=O)=O)c3-c3nnn[nH]3)cccc2s1 [Example 29]", 2.08],
  ["NS(=O)(=O)c1c(S(=O)(=O)N[C@@H]2CCNC2)ccc(-c2cccc3nc(O)[nH]c23)c1-c1nnn[nH]1 [Example 130]", 0.684]
]}

// each compound listed below needs its IC50
1. NC[C@H](O)CNS(=O)(=O)c1ccc(-c2ccc3nccn3c2)c(-c2nn[nH]n2)c1S(N)(=O)=O [Example 418]
2. NC[C@@H](O)CNS(=O)(=O)c1ccc(-c2ccc3nccn3c2)c(-c2nn[nH]n2)c1S(N)(=O)=O [Example 420]
3. Nc1ccc2cccc(-c3ccc(S(N)(=O)=O)c(S(N)(=O)=O)c3-c3nn[nH]n3)c2n1 [Example 2]
4. Nc1nc2c(-c3ccc(S(=O)(=O)NC[C@]4(F)CCCNC4)c(S(N)(=O)=O)c3-c3nnn[nH]3)cccc2s1.O=CO [Example 122, formate]

Result ::
1: 0.834; 2: 0.974; 3: 0.279; 4: 0.282

----------
experimental system: VIM-1 (Pseudomonas aeruginosa (strain ATCC 15692 / DSM 22644 / CIP 104116 / JCM 14847 / LMG 12228 / 1C / PRS 101 / PAO1))
assay notes: biochemical
recorded conditions: fluorescence assay, CCF2-FA substrate, 30 pM enzyme, 2 hours at 25° C.; read-out: VIM-1 IC50
readout kind: pIC50
One number for each entry, as −log10 of the molar value.

{"columns": ["molecular string", "pIC50"],
 "data": [
  ["C[C@@H](CN)NS(=O)(=O)c1ccc(-c2ccc(N)nc2)c(-c2nn[nH]n2)c1S(N)(=O)=O", 8.91],
  ["Nc1nc2c(-c3ccc(S(=O)(=O)NC4CCNCC4)c(S(N)(=O)=O)c3-c3nn[nH]n3)cccc2[nH]1", 9.82],
  ["NS(=O)(=O)c1c(S(=O)(=O)N[C@@H]2CCNC2)ccc(-c2ccc3c(c2)C(=O)NC3)c1-c1nnn[nH]1", 9.82],
  ["Nc1nc2c(-c3ccc(S(=O)(=O)N[C@@H]4CCNC4)c(S(N)(=O)=O)c3-c3nn[nH]n3)cccc2[nH]1", 9.98],
  ["NCc1nc2c(-c3ccc(S(=O)(=O)NC(CN)CN)c(S(N)(=O)=O)c3-c3nn[nH]n3)cccc2[nH]1", 9.89],
  ["C[C@H](N)c1nc2c(-c3ccc(S(=O)(=O)N[C@@H]4CCNC4)c(S(N)(=O)=O)c3-c3nn[nH]n3)cccc2[nH]1", 9.96]
]}

Please look at the following molecule next.
Query :: Give recorded pIC50. NCCNS(=O)(=O)c1ccc(-c2cc(F)cc3[nH]c(N)nc23)c(-c2nnn[nH]2)c1S(N)(=O)=O
Result :: 9.79

----------
Give measured log10 of IC50 for each item. Keep answers brief.
experimental system: NDM-1 (Klebsiella pneumoniae, UniProt C7C422)
Sequence (C7C422 whole entry, looked up, species assumed): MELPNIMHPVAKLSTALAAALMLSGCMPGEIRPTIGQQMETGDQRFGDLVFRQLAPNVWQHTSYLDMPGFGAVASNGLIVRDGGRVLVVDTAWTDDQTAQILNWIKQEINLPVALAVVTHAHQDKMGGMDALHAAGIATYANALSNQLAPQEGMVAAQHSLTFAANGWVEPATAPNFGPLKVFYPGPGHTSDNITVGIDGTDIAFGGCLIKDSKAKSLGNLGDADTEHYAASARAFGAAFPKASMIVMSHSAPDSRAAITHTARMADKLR
assay notes: biochemical
Assay type: biochemical
recorded conditions: fluorescence assay, CCF2-FA substrate, 1 pM enzyme, 2 hours at 25° C.; read-out: NDM-1 IC50
Log scale reminder: IC50 in nM, then log10 taken.

{"columns": ["compound", "log10 of IC50"],
 "data": [
  ["C[C@H](CCN)NS(=O)(=O)c1ccc(-c2cccc3[nH]c(N)nc23)c(-c2nn[nH]n2)c1S(N)(=O)=O [Example 266]", -1.55]
]}

// each compound listed below needs its log10 of IC50
1. N[C@H]1C=C(c2ccc(S(=O)(=O)N[C@@H]3CCNC3)c(S(N)(=O)=O)c2-c2nn[nH]n2)CCC1 [Example 339]
2. Nc1nc2c(-c3ccc(S(=O)(=O)NCC4(F)CNC4)c(S(N)(=O)=O)c3-c3nnn[nH]3)cccc2s1.O=CO [Example 91, formate]
3. CNS(=O)(=O)c1ccc(-c2cccc3cn[nH]c23)c(-c2nn[nH]n2)c1S(N)(=O)=O [Example 7]
4. NCCNS(=O)(=O)c1ccc(-c2cccc(-c3c[nH]c(N)n3)c2)c(-c2nn[nH]n2)c1S(N)(=O)=O [Example 353]
5. Nc1nc2c(-c3ccc(S(=O)(=O)N[C@@H]4CCNC4)c(S(N)(=O)=O)c3-c3nnn[nH]3)cccc2s1 [Example 63]

Result ::
1: 1.08; 2: -1.11; 3: -1.00; 4: -0.59; 5: -1.35

// each compound listed below needs its log10 of IC50
1. Cn1nnc2ccc(-c3ccc(S(=O)(=O)N[C@@H]4CCNC4)c(S(N)(=O)=O)c3-c3nnn[nH]3)cc21 [Example 134]
2. CN(C)CCCN(C)S(=O)(=O)c1ccc(-c2cccc3sc(N)nc23)c(-c2nnn[nH]2)c1S(N)(=O)=O [Example 52]
3. Nc1ccc(-c2ccc(S(=O)(=O)NC[C@@H]3CCCN3)c(S(N)(=O)=O)c2-c2nn[nH]n2)cn1 [Example 488]
4. NCCNS(=O)(=O)c1ccc(-c2cccc(NC[C@@H](N)CO)c2)c(-c2nn[nH]n2)c1S(N)(=O)=O [Example 349]

Result ::
-0.52
1.18
-0.69
0.21

// each compound listed below needs its log10 of IC50
1. NS(=O)(=O)c1c(S(=O)(=O)N[C@H]2C[C@H](N)C2)ccc(-c2cccc3[nH]cnc23)c1-c1nn[nH]n1 [Example 200]
2. NC(=O)c1nc2c(-c3ccc(S(=O)(=O)N[C@H]4CCNC4)c(S(N)(=O)=O)c3-c3nn[nH]n3)cccc2[nH]1 [Example 292]
3. Cn1c(N)nc2c(-c3ccc(S(=O)(=O)N[C@H]4CC[N+](C)(C)C4)c(S(N)(=O)=O)c3-c3nn[n-]n3)cccc21 [Example 167]
4. NCC(CN)NS(=O)(=O)c1ccc(-c2cccc(C3N=NC(N)=N3)c2)c(-c2nn[nH]n2)c1S(N)(=O)=O (stereo not drawn) [Example 229]
5. Nc1ccc(-c2ccc(S(=O)(=O)N[C@@H]3CCCNC3)c(S(N)(=O)=O)c2-c2nn[nH]n2)cn1 [Example 490]
6. NC[C@H](O)CNS(=O)(=O)c1ccc(-c2cnc(N)c(F)c2)c(-c2nn[nH]n2)c1S(N)(=O)=O [Example 469]
7. Nc1ccc2cccc(-c3ccc(S(=O)(=O)N[C@H]4CNC[C@H]4N)c(S(N)(=O)=O)c3-c3nn[nH]n3)c2n1 [Example 324]

Result ::
1: -1.28; 2: -1.34; 3: -1.23; 4: -1.51; 5: -1.36; 6: -0.82; 7: -1.41
